Source of measurements: patent US20110118131A1

Molecular target: T1, IL-1β (UniProt P01584 117-269)
T1 construct: Antigen immobilised on the Biacore chip
Test: Biacore, periplasmic extract
quantity: fold difference in affinity vs original
Quick note: unit goes after the number.

// known answers, use as guide
XPA23 light chain Q27R (Fab, V domains shown) VH: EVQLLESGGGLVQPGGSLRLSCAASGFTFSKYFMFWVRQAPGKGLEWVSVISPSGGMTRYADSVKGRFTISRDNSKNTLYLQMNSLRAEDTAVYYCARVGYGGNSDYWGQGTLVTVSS VL: DIQMTQSPSSVSASVGDRLTIICRASRDINRWLAWYQQTPGNAPKLLIHSATSLQSGVPSRFSGSGSGTDFTLTINSLQPEDFATYYCQQADSFPLTFGGGTKVEIK ... 0.89 fold
XPA23 light chain D28G (Fab, V domains shown) VH: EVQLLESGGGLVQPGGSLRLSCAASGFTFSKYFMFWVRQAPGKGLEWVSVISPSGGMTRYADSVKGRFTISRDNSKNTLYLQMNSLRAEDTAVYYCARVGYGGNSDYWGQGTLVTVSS VL: DIQMTQSPSSVSASVGDRLTIICRASQGINRWLAWYQQTPGNAPKLLIHSATSLQSGVPSRFSGSGSGTDFTLTINSLQPEDFATYYCQQADSFPLTFGGGTKVEIK ... 1.21 fold
XPA23 light chain R31S (Fab, V domains shown) VH: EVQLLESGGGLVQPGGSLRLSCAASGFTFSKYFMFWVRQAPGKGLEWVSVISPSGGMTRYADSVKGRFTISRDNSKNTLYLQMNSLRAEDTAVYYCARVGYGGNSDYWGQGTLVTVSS VL: DIQMTQSPSSVSASVGDRLTIICRASQDINSWLAWYQQTPGNAPKLLIHSATSLQSGVPSRFSGSGSGTDFTLTINSLQPEDFATYYCQQADSFPLTFGGGTKVEIK ... 0.44 fold

Task: Please report the recorded fold difference in affinity vs original for XPA23 light chain S53K (Fab, V domains shown) VH: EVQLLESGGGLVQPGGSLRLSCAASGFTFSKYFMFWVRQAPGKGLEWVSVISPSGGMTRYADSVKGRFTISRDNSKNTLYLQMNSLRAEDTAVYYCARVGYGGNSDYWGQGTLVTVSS VL: DIQMTQSPSSVSASVGDRLTIICRASQDINRWLAWYQQTPGNAPKLLIHSATKLQSGVPSRFSGSGSGTDFTLTINSLQPEDFATYYCQQADSFPLTFGGGTKVEIK .
Result: 4.07 fold
